target: MDR1 (ABCB1) (Homo sapiens, UniProt P08183); assay: Activity of human MDR1 expressed in pig LLC-PK cells assessed as apparent permeability from apical to basolateral side at 5 uM after 1 to 4 hrs by LC-MS/MS analysis; type: ADME, cell-based; settings: LLC-PK1
Sequence (P08183 whole entry): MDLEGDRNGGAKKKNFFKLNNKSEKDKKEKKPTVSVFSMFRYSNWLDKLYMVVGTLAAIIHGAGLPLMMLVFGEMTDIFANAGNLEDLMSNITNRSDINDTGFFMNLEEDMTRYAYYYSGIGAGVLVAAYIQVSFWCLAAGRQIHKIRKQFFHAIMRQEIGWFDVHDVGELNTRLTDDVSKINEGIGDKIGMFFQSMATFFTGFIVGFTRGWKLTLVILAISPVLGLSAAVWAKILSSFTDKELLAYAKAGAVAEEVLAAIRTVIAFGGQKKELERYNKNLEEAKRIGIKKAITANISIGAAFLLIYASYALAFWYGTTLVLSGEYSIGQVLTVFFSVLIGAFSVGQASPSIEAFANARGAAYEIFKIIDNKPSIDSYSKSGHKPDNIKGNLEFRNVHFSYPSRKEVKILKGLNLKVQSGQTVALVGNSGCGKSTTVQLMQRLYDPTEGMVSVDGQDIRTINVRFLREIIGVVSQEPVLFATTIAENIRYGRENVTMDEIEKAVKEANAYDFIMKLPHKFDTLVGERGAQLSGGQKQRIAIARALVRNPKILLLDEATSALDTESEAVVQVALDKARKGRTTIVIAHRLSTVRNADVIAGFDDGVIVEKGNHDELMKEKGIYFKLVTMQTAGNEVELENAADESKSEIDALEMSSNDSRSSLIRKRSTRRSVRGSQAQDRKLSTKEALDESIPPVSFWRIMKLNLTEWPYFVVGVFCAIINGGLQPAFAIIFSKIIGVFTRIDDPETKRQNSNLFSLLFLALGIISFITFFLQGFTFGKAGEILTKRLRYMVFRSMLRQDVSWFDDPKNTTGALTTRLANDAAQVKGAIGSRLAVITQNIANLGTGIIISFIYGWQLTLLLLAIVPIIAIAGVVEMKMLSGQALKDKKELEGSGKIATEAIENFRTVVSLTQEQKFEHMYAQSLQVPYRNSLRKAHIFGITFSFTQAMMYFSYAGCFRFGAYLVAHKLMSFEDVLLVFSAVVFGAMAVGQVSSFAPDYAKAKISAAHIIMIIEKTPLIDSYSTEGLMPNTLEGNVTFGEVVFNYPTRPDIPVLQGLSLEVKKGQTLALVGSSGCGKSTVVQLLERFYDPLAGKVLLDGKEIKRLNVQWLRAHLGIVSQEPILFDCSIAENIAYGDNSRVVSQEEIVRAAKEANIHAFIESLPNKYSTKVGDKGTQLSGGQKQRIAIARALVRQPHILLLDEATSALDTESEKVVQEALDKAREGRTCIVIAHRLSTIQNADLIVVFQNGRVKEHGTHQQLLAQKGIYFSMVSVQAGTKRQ
Endpoint name: Papp A→B at 5 µM
Could you give the number and then its unit, please?

Prompt: Form: Entry = CC/C(=C(\c1ccc(O)cc1)c1ccc(OCCNC)cc1)c1ccccc1 [ENDOXIFEN] | System = MDR1 (ABCB1) (Homo sapiens, UniProt P08183) | Papp A→B at 5 µM = ____
Response: 1.1 ×10⁻⁶ cm/s

---

experiment: Apparent permeability from basolateral to apical side in pig LLC-PK cells at 5 uM after 1 to 4 hrs by LC-MS/MS analysis; type: ADME, cell-based, Sus scrofa; settings: LLC-PK1
Endpoint name: Papp B→A at 5 µM (×10⁻⁶ cm/s)
Please state the figure in ×10⁻⁶ cm/s; there is no need to write the unit.

Prompt: What value of Papp B→A at 5 µM has been reported for the following molecule? CC/C(=C(\c1ccc(O)cc1)c1ccc(OCCNC)cc1)c1ccccc1 [ENDOXIFEN]
Response: 2.15

---

assay: Ratio of drug level in brain to plasma in MDR1A-deficient CF-1 mouse at 5 mg/kg, po after 0.5 to 4 hrs by LC-MS/MS analysis; type: ADME, organism-based; design: dose 5 mg/kg, route oral; conditions: read-out: BPR
Endpoint name: Kp

Prompt: What value of Kp has been reported for the following compound? CC/C(=C(\c1ccc(O)cc1)c1ccc(OCCNC)cc1)c1ccccc1 [ENDOXIFEN]
Response: > 10
